These data points were gathered from patent US20190248900A1.

biological target: T1, M5-1; assay: scFv-phage ELISA
T1 construct: also called PD1 mutant M5-1
VALUE_KIND: OD490

# count of solved cases: 4
# BINDER, OD490
rows = [
    ("PD1-45F1 (antibody, V domains shown, scFv-phage in the screening ELISA; later whole IgG) VH: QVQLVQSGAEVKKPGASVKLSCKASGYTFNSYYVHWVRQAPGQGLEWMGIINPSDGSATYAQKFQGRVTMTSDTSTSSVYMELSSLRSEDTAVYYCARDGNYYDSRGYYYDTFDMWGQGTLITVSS VL: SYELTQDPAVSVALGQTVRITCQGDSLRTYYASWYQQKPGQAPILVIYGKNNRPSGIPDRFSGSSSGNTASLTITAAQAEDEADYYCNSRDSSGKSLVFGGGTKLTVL", 3.9),
    ("PD1-32A6 (antibody, V domains shown, scFv-phage in the screening ELISA; later whole IgG) VH: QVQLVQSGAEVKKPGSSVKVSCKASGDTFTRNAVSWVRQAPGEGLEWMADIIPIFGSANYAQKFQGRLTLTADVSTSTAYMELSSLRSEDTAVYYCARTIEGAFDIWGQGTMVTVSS VL: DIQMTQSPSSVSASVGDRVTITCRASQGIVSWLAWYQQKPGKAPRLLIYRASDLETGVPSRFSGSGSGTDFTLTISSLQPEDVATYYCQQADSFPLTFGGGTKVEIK", 3.6),
    ("PD1-31F3 (antibody, V domains shown, scFv-phage in the screening ELISA; later whole IgG) VH: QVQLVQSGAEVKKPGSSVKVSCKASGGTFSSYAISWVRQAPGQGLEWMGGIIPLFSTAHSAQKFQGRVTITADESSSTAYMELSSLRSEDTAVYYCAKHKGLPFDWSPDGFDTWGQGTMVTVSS VL: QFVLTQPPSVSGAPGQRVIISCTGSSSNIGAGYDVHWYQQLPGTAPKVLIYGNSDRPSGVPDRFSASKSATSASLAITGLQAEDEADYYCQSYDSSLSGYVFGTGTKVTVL", 1.3),
    ("PD1-52E8 (antibody, V domains shown, scFv-phage in the screening ELISA; whole IgG in the other assays) VH: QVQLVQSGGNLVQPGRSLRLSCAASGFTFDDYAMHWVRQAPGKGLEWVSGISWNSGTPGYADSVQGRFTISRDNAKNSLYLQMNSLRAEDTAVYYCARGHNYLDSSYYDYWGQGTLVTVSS VL: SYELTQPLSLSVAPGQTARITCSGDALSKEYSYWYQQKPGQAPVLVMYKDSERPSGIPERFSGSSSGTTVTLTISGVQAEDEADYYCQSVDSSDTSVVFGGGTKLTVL", 0.3),
]

Prompt line: Give the measured OD490 of PD1-49A2 (antibody, V domains shown, scFv-phage in the screening ELISA; whole IgG in the other assays; also called Parent 49A2) VH: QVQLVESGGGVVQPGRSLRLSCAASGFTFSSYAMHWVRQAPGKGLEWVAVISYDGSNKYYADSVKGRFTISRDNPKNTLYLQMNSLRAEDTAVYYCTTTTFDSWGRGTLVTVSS VL: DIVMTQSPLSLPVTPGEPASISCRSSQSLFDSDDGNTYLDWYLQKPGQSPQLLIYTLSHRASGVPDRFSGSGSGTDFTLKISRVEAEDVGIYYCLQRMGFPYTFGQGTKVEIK .
Response line: 0.7
